Experiment: Microsomal stability in human liver microsome assessed as half life
Assay type: ADME, microsomes
Details: liver microsomes
READOUT: half-life (h)

Worked examples follow.
## Input Would you mind telling me what half-life value was observed for COc1ccc(C(=O)C2CCN(C(=O)c3ccc(C(=O)N[C@H]4CCN(Cc5ccc(C#N)cc5)C[C@@H]4F)cn3)CC2)cc1 (relative stereo) ?
## Output 1.9

## Input Would you mind telling me what half-life value was observed for `COc1ccc(C(=O)C2CCN(C(=O)c3ccc(C(=O)N[C@@H]4CCN(Cc5ccc(C#N)cc5)C[C@@H]4C)cn3)CC2)cc1` ?
## Output 0.383

## Input Would you mind telling me what half-life value was observed for `COc1ccc(C(=O)C2CCN(C(=O)c3cc(C(F)(F)F)c(C(=O)NC4CCN(Cc5ccc(C#N)cc5)CC4)cn3)CC2)cc1` ?
## Output 1.48

## Input Would you mind telling me what half-life value was observed for COc1ccc(C(=O)C2CCN(C(=O)c3ccc(C(=O)NC4CCN(Cc5ccc(C#N)cc5)CC4(F)F)cn3)CC2)cc1 (stereo unspecified) ?
## Output 1.23

[a] COc1ccc(CN2CCC(NC(=O)c3cnc(C(=O)N4CCC(C(=O)c5ccc(OC)cc5)CC4)cc3C)CC2)cc1
[b] N#Cc1ccc(CN2CC[C@H](NC(=O)c3ccc(C(=O)N4CCC(C(=O)c5ccc(N6CCOCC6)cc5)CC4)nc3)[C@@H](F)C2)cc1
## Input # compare half-life for a vs b ; return the one with the smaller value Write down the label of the entry you select.
## Output b
(b: 2.63 h, a: 4.72 h)
